Test system: UO-31 renal
EXPERIMENT: NCI tumour cell line growth inhibition, 48 h
Attribute: TGI

Asked: Give TGI for the following compound: COC(=O)c1c2c(c(C)[n+]([O-])c1C)C(=O)C=C(NCc1cccc(OC)c1)C2=O
Given back: 2.44 µM

###

Attribute: TGI
Tested on: EKVX NSCLC
EXPERIMENT: NCI tumour cell line growth inhibition, 48 h

molecule=O=C(O)c1c(-c2c3ccc(=O)cc-3oc3cc(O)ccc23)cc2ccccc2c1-c1ccccc1 observable=TGI observed_result="> 100 µM"
molecule=Oc1[nH]c2ccccc2c1N=NC1=NCCCCN1 observable=TGI observed_result="> 100 µM"
molecule="N/N=C1\\c2ccccc2C2/C(=N\\N)c3ccccc3C12 (stereo unspecified)" observable=TGI observed_result="> 100 µM"
molecule=COC1=CC(=O)C(O)=C(C[C@@]2(C)[C@@H]3CCC[C@H](COC(=O)CCCCCNC(=O)OC(C)(C)C)[C@@]3(C)CC[C@@H]2C)C1=O observable=TGI observed_result="> 10 µM"
molecule=COc1cc2c3c(n(CCN)c(=O)c2cc1OC)-c1cc2c(cc1C3=O)OCO2 observable=TGI observed_result="3.97 µM"
molecule=O=C(O)Cc1ccc(N2N=C(c3ccccc3)CC2=O)cc1 observable=TGI observed_result="> 100 µM"
molecule=CC1=C(C2=C(C)C(=O)C(=O)c3cc(C)ccc32)c2ccc(C)cc2C(=O)C1=O observable=TGI observed_result="0.686 µM"
molecule=Cc1nc2c(nc1C)-c1c(c3c(n1Cc1ccccc1)C(=O)CCC3)C(=O)C2=O observable=TGI observed_result="> 100 µM"
molecule="Oc1ccc2c(c1)OCC(O)(c1ccccc1O)C2 (stereo unspecified)" observable=TGI observed_result="> 100 µM"
molecule="FC(F)(F)c1ccc2c(c1)nc(Cc1ccccc1)n2C[C@@H]1CCCN2CCCCC12 (stereo partly specified)" observable=TGI observed_result="28.9 µM"

Asked: Give TGI for the following molecule: C=C1C(=O)OC2/C=C(\C)C(O)CC(O)C(C)(O)CC(OC(=O)/C(C)=C/C)C12 (stereo unspecified)
Given back: > 100 µM

Asked: Give TGI for the following molecule: NC1=NC(c2ccccc2)N=C(Nc2ccccc2)N1 (stereo unspecified)
Given back: > 100 µM

Asked: Give TGI for the following molecule: COc1ccc(NC(=O)C(=O)NNC(=O)c2sc(NNC(C)=O)nc2C)c([N+](=O)[O-])c1
Given back: > 100 µM

Asked: Give TGI for the following molecule: C=CCNC1=C(C(=O)OCC)C(=O)CO1
Given back: > 100 µM

Asked: Give TGI for the following molecule: CC1=C(C(=O)OCCO[N+](=O)[O-])C(c2ccccc2C(F)(F)F)C(C(=O)OC(C)C)=C(C)N1 (stereo unspecified)
Given back: 97.9 µM

Asked: Give TGI for the following molecule: COC(=O)[C@H]1[C@H](C(=O)OC)[C@@H](C)c2c(ccc3c2[nH]c2ccccc23)[C@@H]1C
Given back: > 100 µM

Asked: Give TGI for the following molecule: N#Cc1c(=O)c2cc([N+](=O)[O-])ccc2n2c1[nH]c1ccccc12
Given back: > 100 µM

Asked: Give TGI for the following molecule: O=[N+]([O-])CC(SCc1ccccc1)c1ccc2c(c1)OCO2 (stereo unspecified)
Given back: 39.5 µM

Asked: Give TGI for the following molecule: COc1nn(Cc2ccccc2F)c2ccc([N+](=O)[O-])cc12
Given back: > 100 µM

Asked: Give TGI for the following molecule: CC1(C)OCC2OC3([C@H](O)CCO)OC(C)(C)OC3C2O1 (stereo partly specified)
Given back: > 100 µM

Asked: Give TGI for the following molecule: C=C(CNCCc1ccc(O)cc1)[C@@H]1CC[C@]2(CO)CC[C@]3(C)[C@H](CC[C@@H]4[C@@]5(C)CCC(=O)C(C)(C)[C@@H]5CC[C@]43C)[C@@H]12
Given back: 3.24 µM

All figures here come from PubChem BioAssay (NCI).
